What IC50 was measured for each of the following?
- Tested on: Wnt activity (Wnt-responsive Sp5 promoter-luciferase reporter in SW480 cells)
- test summary: Wnt activity screening assay: Sp5-Luc reporter gene in SW480 colon carcinoma cells
- Type: cell-based
- condition description: Homo sapiens
Just the number please, in nM, no unit attached.

May I ask what IC50 has been recorded for NC1CN(c2cncc(-c3cc4c(-c5nc6c(-c7cccc(F)c7)cncc6[nH]5)n[nH]c4cn3)n2)C1 ?
103

May I ask what IC50 has been recorded for O=C(Nc1cncc(-c2cc3c(-c4nc5c(-c6ccccc6F)cncc5[nH]4)n[nH]c3cn2)c1)C1CCC1 ?
144

May I ask what IC50 has been recorded for Fc1cccc(-c2cncc3[nH]c(-c4n[nH]c5cnc(-c6cncc(OC7CCCCC7)c6)cc45)nc23)c1 ?
735

May I ask what IC50 has been recorded for CC(C)(C)C(=O)Nc1cncc(-c2cc3c(-c4nc5c(-c6ccc(F)cc6)cncc5[nH]4)n[nH]c3cn2)c1 ?
174

May I ask what IC50 has been recorded for CN(C)CCOc1cncc(-c2cc3c(-c4nc5c(-c6cccc(F)c6)cncc5[nH]4)n[nH]c3cn2)c1 ?
437

May I ask what IC50 has been recorded for CN(C)CCNc1cc(F)cc(-c2cncc3[nH]c(-c4n[nH]c5cnc(-c6cncc(N(C)C)c6)cc45)nc23)c1 ?
482

====

What pEC50 was measured for each of the following?
- Tested on: primary human fibroblasts derived from IPF patients (LL29 cells)
- test summary: Inhibition of fibrotic process: αSMA staining in TGF-β1-treated primary human fibroblasts from IPF patients (LL29 cells)
- Assay type: cell-based
- condition description: Fibroblast, 96 h, LL29 cells treated with TGF-β1 (20 ng/mL), 4 days, 11-point dose-response from 10 μM to 1.87 nM, read-out: Inhibition of fibrosis EC50
Please note pEC50 is a logarithmic value: minus log10 of concentration in mol/L. Answer with that number alone.

May I ask what pEC50 has been recorded for CN(C)c1cncc(-c2cc3c(-c4nc5c(N6CCCCC6)cncc5[nH]4)n[nH]c3cn2)c1 [Compound 163] ?
7.42

May I ask what pEC50 has been recorded for Fc1ccc(-c2cncc3[nH]c(-c4n[nH]c5cnc(-c6cncc(CN7CCCC7)c6)cc45)nc23)cc1 [Compound 40] ?
5.75

May I ask what pEC50 has been recorded for CN(C)Cc1cncc(-c2cc3c(-c4nc5c(N6CCCCC6)cncc5[nH]4)n[nH]c3cn2)c1 [Compound 169] ?
7.13

May I ask what pEC50 has been recorded for CCNCc1cncc(-c2cc3c(-c4nc5c(-c6cccc(F)c6)cncc5[nH]4)n[nH]c3cn2)c1 [Compound 6] ?
6.29

May I ask what pEC50 has been recorded for O=C(Nc1cncc(-c2cc3c(-c4nc5c(-c6ccc(F)s6)cncc5[nH]4)n[nH]c3cn2)c1)C1CCC1 [Compound 332] ?
5.98

May I ask what pEC50 has been recorded for Fc1ccc(-c2cncc3[nH]c(-c4n[nH]c5cnc(-c6cncnc6)cc45)nc23)cc1 [Compound 52] ?
5.92

May I ask what pEC50 has been recorded for Oc1cncc(-c2cc3c(-c4nc5c(-c6cccc(F)c6)cncc5[nH]4)n[nH]c3cn2)c1 [Compound 897] ?
7.49

May I ask what pEC50 has been recorded for CC(C)(C)C(=O)Nc1cncc(-c2cc3c(-c4nc5c(-c6ccc(F)s6)cncc5[nH]4)n[nH]c3cn2)c1 [Compound 320] ?
6.99
